Biological target: SARS-CoV-2 Spike (S) protein, strain BetaCoV/Wuhan-Hu-1/2019, full length (SARS-CoV-2 Wuhan-Hu-1, UniProt P0DTC2 14-1273)
Assay: cell-based or functional assay
Each entry below carries its reported Percent neutralization of infection, dilution 18.
measure_name: Percent neutralization of infection, dilution 18 (%)

1) SARS-CoV-2 S304 mAb (B cell supernatant) (antibody, V domains shown) VH: EVQLVESGGGLVQPGGSLRLSCAASGFTFSSYDMHWVRQTTGKGLEWVSTIGTAGDTYYPDSVKGRFTISREDAKNSLYLQMNSLRAGDTAVYYCARGDSSGYYYYFDYWGQGTLLTVSS VL: DIQMTQSPSSLSAAVGDRVTITCRASQSIGSYLNWYQQKPGKAPKLLIYAASSLQSGVPSRFSGSGSGTDFTLTISSLQPEDFAIYYCQQSYVSPTYTFGPGTKVDIK: -22
2) SARS-CoV-2 S306 mAb (B cell supernatant) (antibody, V domains shown) VH: QVQLVQSGAEVKKPGASVKVSCKASTYTFTSFGISWVRQAPGQGLEWMGWITTYSGDTNYAQKFQGRVTMTTDTSTNTAYMELRSLRSDDTAVYYCASDYFDSSGYYHSFDYWGQGTLVTVSS VL: EIVLTQSPDTLSLSPGERATLSCRASQSVSSYLAWYQQRPGQAPRLLIYDASKRATGIPARFSGSGSGTDFTLTISSLEPEDFAVYYCQQRSNWPPGCSFGQGTKVEIK: -9
3) SARS-CoV-2 S303 mAb (B cell supernatant) (antibody, V domains shown) VH: EVQLVESGGGLVKPGGSLRLSCAASGFTFLTYSMNWVRQTPGKRLQWVSAISGSGGATYYADSVKGRFTISRDNSKNTLYLQMNTVTADDTAIYFCARERDDIFPMGLNAFDIWGQGAMVIVSS VL: DIQMTQSPSTLSASVGDRVTITCRASQSISNWLAWYQQKPGKAPKLLIYKASSLESGVPSRFSGSGSGTEFTLTISSLQPDDSATYYCQQYDTYSWTFGQGTKVEIK: 2
4) SARS-CoV-2 S308 mAb (B cell supernatant) (antibody, V domains shown) VH: QVQLVESGGGVVQPGRSLRLSCAASRFTFSSYGMHWVRQAPGKGLEWVAVIWHDGNNKHYGDSVKGRVTISRDNSKNTLYLQMTSLRAEDTAVYYCARAVTTFKGSGRARMRGMDVWGQGTTVTVSS VL: DIQLTQSPSFLSASVGDRVTITCRASQGINTYLAWYQQKPGKAPKLLIYAASTLQSGVPSRFSGSGSGTEFTLTISSLQPEDFATYYCQHLDTYPFTFGPGTKVDIK: 32
